# target-under-test: T1, platelet integrin αIIbβ3 (human platelet glycoprotein gpIIb/IIIa), purified (human, UniProt P08514 32-1039; P05106 27-788)
# T1 construct: mature
# assay-comment: inhibition of 125I-fibrinogen binding to purified αIIbβ3
observation-type: pIC50
Numbers only, as −log10 of the molar value.

Worked cases, pIC50 given:
Ac-GCSFGRTDQRNCY-NH2 (cysteine pairing not given here, also called peptide 32 (linear)) [linear peptide GCSFGRTDQRNCY derived from the HCDR3 of MTF-32]: 5.70
CSFGRNDSRNC (HELM PEPTIDE1{[ac].C.S.F.G.R.N.D.S.R.N.C.[am]}$PEPTIDE1,PEPTIDE1,2:R3-12:R3$$$V2.0; SMILES CC(=O)N[C@H]1CSSC[C@@H](C(N)=O)NC(=O)[C@H](CC(N)=O)NC(=O)[C@H](CCCNC(=N)N)NC(=O)[C@H](CO)NC(=O)[C@H](CC(=O)O)NC(=O)[C@H](CC(N)=O)NC(=O)[C@H](CCCNC(=N)N)NC(=O)CNC(=O)[C@H](Cc2ccccc2)NC(=O)[C@H](CO)NC1=O, also called peptide 40 (circular)) [circular peptide CSFGRNDSRNC derived from the HCDR3 of MTF-40]: 6.30
Ac-GCSFGRNDSRNCY-NH2 (cysteine pairing not given here, also called peptide 40 (linear)) [linear peptide GCSFGRNDSRNCY derived from the HCDR3 of MTF-40]: 6.30

# input for lookup
Consider the binder CSFGRTDQRNC (HELM PEPTIDE1{[ac].C.S.F.G.R.T.D.Q.R.N.C.[am]}$PEPTIDE1,PEPTIDE1,2:R3-12:R3$$$V2.0; SMILES CC(=O)N[C@H]1CSSC[C@@H](C(N)=O)NC(=O)[C@H](CC(N)=O)NC(=O)[C@H](CCCNC(=N)N)NC(=O)[C@H](CCC(N)=O)NC(=O)[C@H](CC(=O)O)NC(=O)[C@H]([C@@H](C)O)NC(=O)[C@H](CCCNC(=N)N)NC(=O)CNC(=O)[C@H](Cc2ccccc2)NC(=O)[C@H](CO)NC1=O, also called peptide 32 (circular)) [circular peptide CSFGRTDQRNC derived from the HCDR3 of MTF-32] and give its measured pIC50.
5.70
